target-or-system: human GLP-1 receptor (human, UniProt P43220 24-463)
protocol-description: cell-based or functional assay
Bridges are numbered along the chain shown (N, C = ends). Where no end group is shown, it is not given here. [ ]: non-standard residue; d: D form. The star is where a group is joined. Acetyl(2-(4-imidazolyl)) = O=C(Cc1c[nH]cn1)*; Aib = CC(C)(N)C(=O)O
Measured In vitro activity relative to native peptide (%) vs. GLP-1 values are reported for all entries that follow.
measured-attribute: In vitro activity relative to native peptide (%) vs. GLP-1

[
  {
    "binder": "H[Aib]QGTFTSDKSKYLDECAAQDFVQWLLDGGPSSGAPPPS [triple agonist of SEQ ID NO: 41]",
    "sign-qualifier": "=",
    "observed-measurement": 34.3
  },
  {
    "binder": "[Acetyl(2-(4-imidazolyl))][Aib]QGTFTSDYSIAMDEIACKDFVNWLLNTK (bridge 16-20; not fully specified) [triple agonist of SEQ ID NO: 61]",
    "sign-qualifier": "=",
    "observed-measurement": 59.8
  },
  {
    "binder": "[Acetyl(2-(4-imidazolyl))][Aib]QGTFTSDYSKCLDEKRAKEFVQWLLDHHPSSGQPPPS (bridge 16-20; not fully specified) [triple agonist of SEQ ID NO: 74]",
    "sign-qualifier": "=",
    "observed-measurement": 12.9
  },
  {
    "binder": "[Acetyl(2-(4-imidazolyl))]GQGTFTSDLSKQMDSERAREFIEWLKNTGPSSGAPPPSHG [triple agonist of SEQ ID NO: 18]",
    "sign-qualifier": "<",
    "observed-measurement": 0.1
  },
  {
    "binder": "H[Aib]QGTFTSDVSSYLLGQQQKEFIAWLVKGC [triple agonist of SEQ ID NO: 4]",
    "sign-qualifier": "=",
    "observed-measurement": 8.5
  },
  {
    "binder": "Y[Aib]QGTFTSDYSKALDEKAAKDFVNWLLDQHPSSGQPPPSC (bridge 16-20) [triple agonist of SEQ ID NO: 102]",
    "sign-qualifier": "=",
    "observed-measurement": 23.3
  },
  {
    "binder": "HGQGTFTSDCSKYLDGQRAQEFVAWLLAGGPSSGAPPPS [triple agonist of SEQ ID NO: 47]",
    "sign-qualifier": "=",
    "observed-measurement": 2.4
  },
  {
    "binder": "Y[Aib]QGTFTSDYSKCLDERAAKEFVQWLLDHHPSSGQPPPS (bridge 16-20) [triple agonist of SEQ ID NO: 69]",
    "sign-qualifier": "=",
    "observed-measurement": 24.3
  },
  {
    "binder": "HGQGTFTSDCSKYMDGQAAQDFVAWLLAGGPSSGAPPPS [triple agonist of SEQ ID NO: 45]",
    "sign-qualifier": "=",
    "observed-measurement": 6.6
  },
  {
    "binder": "Y[Aib]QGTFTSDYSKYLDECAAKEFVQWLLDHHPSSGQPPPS (bridge 16-20) [triple agonist of SEQ ID NO: 64]",
    "sign-qualifier": "=",
    "observed-measurement": 64.6
  },
  {
    "binder": "Y[Aib]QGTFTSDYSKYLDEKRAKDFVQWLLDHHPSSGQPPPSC (bridge 16-20) [triple agonist of SEQ ID NO: 76]",
    "sign-qualifier": "=",
    "observed-measurement": 10.3
  }
]
